# Test system: PC-3
# Run Description: Cytotoxicity against human PC3 cells after 3 days by SRB assay
# Type: functional
# Experimental Context: PC-3, 72 h, read-out: ED50 (the source's name)
Quantity Name: EC50

Give reported EC50 for COC(=O)[C@]1(C)CC[C@]2(C)CC[C@]3(C)C4=CC=C5C(=CC(=O)C(O)=C5C)[C@]4(C)CC[C@@]3(C)[C@@H]2C1 [PRISTIMERIN] (PC-3) 0.23 µg/mL

Give reported EC50 for CC(=O)O[C@H]1CC[C@](C)(O)[C@]23OC(C)(C)[C@H]([C@H](O)[C@H](OC(=O)c4ccccc4)[C@]12C)[C@H]3O [REISSANTIN D] (PC-3) > 20 µg/mL

Give reported EC50 for `COC(=O)[C@]1(C)CC[C@]2(C)CC[C@]3(C)C4=CC(=O)c5c(cc(O)c(O)c5C)[C@]4(C)CC[C@@]3(C)[C@@H]2C1` (PC-3) > 20 µg/mL

Give reported EC50 for CC[C@H](CC[C@@H](C)[C@H]1CC[C@H]2[C@@H]3CC=C4C[C@@H](O)CC[C@]4(C)[C@H]3CC[C@]12C)C(C)C [BETA-SITOSTEROL] (PC-3) > 20 µg/mL

Give reported EC50 for CC(=O)O[C@H]1[C@@H]2[C@@H](OC(=O)c3ccc(=O)n(C)c3)[C@@]3(OC2(C)C)[C@@](C)([C@@H](OC(C)=O)CC[C@]3(C)O)[C@H]1OC(=O)c1ccccc1 [REISSANTIN A] (PC-3) > 20 µg/mL

Give reported EC50 for CC1(C)CC[C@]2(C)CC[C@]3(C)C(=CC[C@@H]4[C@@]5(C)CC[C@H](O)C(C)(C)C5C(=O)C[C@]43C)[C@H]2C1 (some centres undefined) (PC-3) 15.1 µg/mL

Give reported EC50 for CC(=O)O[C@H]1[C@@H]2[C@@H](O)[C@@]3(OC2(C)C)[C@@](C)([C@@H](OC(C)=O)CC[C@]3(C)O)[C@H]1OC(=O)c1ccccc1 [REISSANTIN E] (PC-3) > 20 µg/mL

Give reported EC50 for CC1=C(O)C(=O)C=C2C1=CC=C1[C@@]2(C)CC[C@@]2(C)[C@@H]3C[C@](C)(C(=O)O)CC[C@]3(C)CC[C@]12C [CELASTROL] (PC-3) 0.27 µg/mL

Give reported EC50 for CC(=O)O[C@H]1[C@@H]2[C@@H](OC(=O)c3ccc(=O)n(C)c3)[C@@]3(OC2(C)C)[C@](C)([C@H]1OC(=O)c1ccccc1)[C@@H](OC(C)=O)[C@@H](OC(=O)c1ccccc1)C[C@]3(C)O [REISSANTIN B] (PC-3) > 20 µg/mL

====

# System: HCT-8
# Run Description: Cytotoxicity against human HCT8 cells after 3 days by SRB assay
# Assay type: functional
# Experimental Context: HCT-8, 72 h, read-out: ED50 (the source's name)
Quantity Name: EC50 (µg/mL)
Give a bare numeral; the unit µg/mL is implied.

Give reported EC50 for `COC(=O)[C@]1(C)CC[C@]2(C)CC[C@]3(C)C4=CC(=O)c5c(cc(O)c(O)c5C)[C@]4(C)CC[C@@]3(C)[C@@H]2C1` (HCT-8) 14.1

Give reported EC50 for `COC(=O)[C@]1(C)CC[C@]2(C)CC[C@]3(C)C4=CC=C5C(=CC(=O)C(O)=C5C)[C@]4(C)CC[C@@]3(C)[C@@H]2C1` (HCT-8) 0.15

====

# Test system: 1A9/ptx-10
# Run Description: Cytotoxicity against human 1A9/PTX10 cells after 6 days by SRB assay
# Format: functional
# Experimental Context: 1A9/ptx-10, 144 h, read-out: ED50 (the source's name)
Kindly state EC50 for each of the entries shown.
Give a bare numeral; the unit µg/mL is implied.

Give reported EC50 for CC1=C(O)C(=O)C=C2C1=CC=C1[C@@]2(C)CC[C@@]2(C)[C@@H]3C[C@](C)(C(=O)O)CC[C@]3(C)CC[C@]12C [CELASTROL] (1A9/ptx-10) 0.11

Give reported EC50 for COC(=O)[C@]1(C)CC[C@]2(C)CC[C@]3(C)C4=CC=C5C(=CC(=O)C(O)=C5C)[C@]4(C)CC[C@@]3(C)[C@@H]2C1 [PRISTIMERIN] (1A9/ptx-10) 0.076

Give reported EC50 for `COC(=O)[C@]1(C)CC[C@]2(C)CC[C@]3(C)C4=CC(=O)c5c(cc(O)c(O)c5C)[C@]4(C)CC[C@@]3(C)[C@@H]2C1` (1A9/ptx-10) 7.1

Give reported EC50 for CC(=O)O[C@H]1[C@@H]2[C@@H](OC(=O)c3ccc(=O)n(C)c3)[C@@]3(OC2(C)C)[C@](C)([C@H]1OC(=O)c1ccccc1)[C@@H](OC(C)=O)[C@@H](OC(=O)c1ccccc1)C[C@]3(C)O [REISSANTIN B] (1A9/ptx-10) 15.3

====

# Test system: MCF7
# Run Description: Cytotoxicity against human MCF7 cells after 3 days by SRB assay
# Type: functional
# Experimental Context: MCF7, 72 h, read-out: ED50 (the source's name)
Quantity Name: EC50 (µg/mL)
Give a bare numeral; the unit µg/mL is implied.

Entry CC(=O)O[C@H]1CC[C@](C)(O)[C@]23OC(C)(C)[C@H]([C@H](O)[C@H](OC(=O)c4ccccc4)[C@]12C)[C@H]3O [REISSANTIN D] needs its EC50 filled in; supply it. 16.2

Entry `COC(=O)[C@]1(C)CC[C@]2(C)CC[C@]3(C)C4=CC=C5C(=CC(=O)C(O)=C5C)[C@]4(C)CC[C@@]3(C)[C@@H]2C1` needs its EC50 filled in; supply it. 0.14

====

# Run Description: Cytotoxicity against human KBVIN cells after 3 days by SRB assay
# Type: functional
# Experimental Context: 72 h, read-out: ED50 (the source's name)
Quantity Name: EC50 (µg/mL)
Give a bare numeral; the unit µg/mL is implied.

Entry CC(=O)O[C@H]1[C@@H]2[C@@H](OC(=O)c3ccc(=O)n(C)c3)[C@@]3(OC2(C)C)[C@](C)([C@H]1OC(=O)c1ccccc1)[C@@H](OC(C)=O)[C@@H](OC(=O)c1ccccc1)C[C@]3(C)O [REISSANTIN B] needs its EC50 filled in; supply it. 17.1

Entry CC1(C)CC[C@]2(C)CC[C@]3(C)C(=CC[C@@H]4[C@@]5(C)CC[C@H](O)C(C)(C)C5C(=O)C[C@]43C)[C@H]2C1 (stereo not given in full) needs its EC50 filled in; supply it. 14.7

Entry CC(=O)O[C@H]1[C@@H]2[C@@H](O)[C@@]3(OC2(C)C)[C@@](C)([C@@H](OC(C)=O)CC[C@]3(C)O)[C@H]1OC(=O)c1ccccc1 [REISSANTIN E] needs its EC50 filled in; supply it. 16.5

Entry `COC(=O)[C@]1(C)CC[C@]2(C)CC[C@]3(C)C4=CC(=O)c5c(cc(O)c(O)c5C)[C@]4(C)CC[C@@]3(C)[C@@H]2C1` needs its EC50 filled in; supply it. 16.6

====

# Test system: 1A9/ptx-10
# Run Description: Cytotoxicity against human 1A9/PTX10 cells after 6 days by SRB assay
# Type: functional
# Experimental Context: 1A9/ptx-10, 144 h, read-out: ED50 (the source's name)
Quantity Name: EC50

Give reported EC50 for CC(=O)O[C@H]1[C@@H]2[C@@H](O)[C@@]3(OC2(C)C)[C@@](C)([C@@H](OC(C)=O)CC[C@]3(C)O)[C@H]1OC(=O)c1ccccc1 [REISSANTIN E] (1A9/ptx-10) > 20 µg/mL

Give reported EC50 for CC(=O)O[C@H]1[C@@H]2[C@@H](OC(=O)c3ccc(=O)n(C)c3)[C@@]3(OC2(C)C)[C@@](C)([C@@H](OC(C)=O)CC[C@]3(C)O)[C@H]1OC(=O)c1ccccc1 [REISSANTIN A] (1A9/ptx-10) > 20 µg/mL

Give reported EC50 for CC(=O)O[C@H]1CC[C@](C)(O)[C@]23OC(C)(C)[C@H]([C@H](O)[C@H](OC(=O)c4ccccc4)[C@]12C)[C@H]3O [REISSANTIN D] (1A9/ptx-10) > 20 µg/mL

====

# System: MCF7
# Run Description: Cytotoxicity against human MCF7 cells after 3 days by SRB assay
# Type: functional
# Experimental Context: MCF7, 72 h, read-out: ED50 (the source's name)
Quantity Name: EC50

Give reported EC50 for CC(=O)O[C@H]1[C@@H]2[C@@H](O)[C@@]3(OC2(C)C)[C@@](C)([C@@H](OC(C)=O)CC[C@]3(C)O)[C@H]1OC(=O)c1ccccc1 [REISSANTIN E] (MCF7) > 20 µg/mL

Give reported EC50 for CC(=O)O[C@H]1[C@@H]2[C@@H](OC(=O)c3ccc(=O)n(C)c3)[C@@]3(OC2(C)C)[C@](C)([C@H]1OC(=O)c1ccccc1)[C@@H](OC(C)=O)[C@@H](OC(=O)c1ccccc1)C[C@]3(C)O [REISSANTIN B] (MCF7) > 20 µg/mL

Give reported EC50 for CC(=O)O[C@H]1[C@@H]2[C@@H](OC(=O)c3ccc(=O)n(C)c3)[C@@]3(OC2(C)C)[C@@](C)([C@@H](OC(C)=O)CC[C@]3(C)O)[C@H]1OC(=O)c1ccccc1 [REISSANTIN A] (MCF7) > 20 µg/mL
